Origin of measurements: patent US6001880A

- System: mice
- Set-up: species or system mouse (male Slc:ICR)
- condition-info: mouse, in vivo
value-kind: AT: single dose toxicity level
No unit in the answer, please; the number alone is enough.

Below: 3 compounds and their reported AT: single dose toxicity level.
[[record]]
cpd_smiles = "CCN(CC)CCNC(=O)c1cc(OC)c(OC)c(OC/C=C(\\C)CCC=C(C)C)c1"
measured = 4

[[record]]
cpd_smiles = "CCN(CC)CCNC(=O)c1cc(OC)c(OC/C=C(\\C)CCC=C(C)C)c(OC)c1"
measured = 4

[[record]]
cpd_smiles = "CCN(CC)CCNC(=O)c1cc(OC)c(OC/C=C(/C)CCC=C(C)C)c(OC)c1"
measured = 5


Query block: State measured AT: single dose toxicity level of the compound CC(C)=CCC/C(C)=C/COc1ccc(C(=O)NCCN(C(C)C)C(C)C)cc1 with mice.
Result block: 5

Query block: Provide the reported AT: single dose toxicity level (system: mice) for CCN(CC)CCNC(=O)c1ccc(OCC=C(C)C)nc1
Result block: 3

Query block: Report value only: AT: single dose toxicity level, mice, COc1cc(C(=O)NCCN(C)C)cc(OC/C=C(\C)CCC=C(C)C)c1OC
Result block: 3

----------
- Test system: stress ulcer formation in rats
- assay-comment: WIS: Restraint and Water Immersion Stress-Induced Ulcer Inhibition Test
- Assay type: in vivo, rat (male Crj:SD or Slc:SD)
- condition-info: 100 mg/kg oral, 10 minutes before 7 h restraint and water immersion (21° C.)
Class y: WIS: ulcer formation inhibitory rate at least 70%. Class n: WIS: ulcer formation inhibitory rate below 70%.

Some entries whose results are on file:
[[record]]
cpd_smiles = "CCN(CC)CCNC(=O)c1ccc(OC/C=C(/C)CCC=C(C)C)cc1"
discrete_label = "y"

[[record]]
cpd_smiles = "CCN(CC)CCNC(=O)c1ccc(OC/C=C(\\C)CCC=C(C)C)nc1"
discrete_label = "n"

[[record]]
cpd_smiles = "CCN(CC)CCNC(=O)c1ccccc1SC/C=C(\\C)CCC=C(C)C"
discrete_label = "y"

[[record]]
cpd_smiles = "CC(C)=CCOc1ccc(C(=O)NCCN(C)C)cn1"
discrete_label = "n"

[[record]]
cpd_smiles = "CCN(CC)CCNC(=O)c1cc(OC)c(OC/C=C(/C)CCC=C(C)C)c(OC)c1"
discrete_label = "y"


Query block: Could you tell me if the measured WIS: ulcer formation inhibitory rate of CC(C)=CCC/C(C)=C/COc1ccc(C(=O)NCCN(C)CC(C)C)cc1 reaches 70% or more?
Result block: n

----------
- assay-comment: MTT: Cell Damaging and Protecting Effect Test
- Type: cell-based, rabbit (male Japanese White)
- condition-info: rabbit, gastric corpus mucosa cells, final concentration 10^-4 M, smaller value is better, read-out: MTT: cell damaging rate
Recorded cytotoxicity at 4 h, 100 µM for the following compounds
A number alone suffices; assume %.

[[record]]
cpd_smiles = "CC(C)=CCOc1ccc(C(=O)NCCN(C(C)C)C(C)C)cn1"
u = "%"
measured = -13

[[record]]
cpd_smiles = "COc1cc(C(=O)NCCN(C)C)cc(OC/C=C(\\C)CCC=C(C)C)c1OC"
u = "%"
measured = 17

[[record]]
cpd_smiles = "CCN(CC)CCNC(=O)c1ccc(OC)c(OC/C=C(\\C)CCC=C(C)C)c1"
u = "%"
measured = 49

[[record]]
cpd_smiles = "CC(C)=CCOc1cccnc1C(=O)NCCN(C)C"
u = "%"
measured = 1

[[record]]
cpd_smiles = "CC(C)N(CCNC(=O)c1cccc(CN2CCCCC2)c1)C(C)C"
u = "%"
measured = 12


Query block: Indicate the recorded cytotoxicity at 4 h, 100 µM value for this compound: CC(C)=CCC/C(C)=C/COc1ccc(C(=O)NCCN(CC(C)C)CC(C)C)cc1
Result block: 15

Query block: Hello, please tell me recorded cytotoxicity at 4 h, 100 µM for this one: CCN(CC)CCNC(=O)c1ccc(OC/C=C(\C)CCC=C(C)C)nc1
Result block: 4

Query block: Look up cytotoxicity at 4 h, 100 µM of CCN(CC)CCNC(=O)c1ccc(OCC=C(C)C)cc1 and report it.
Result block: 1

----------
- Tested on: isolated gastric fundic gland
- assay-comment: CAP: Acid Secretion Inhibition Test In Vitro ([14C]-aminopyrine uptake)
- Type: cell-based, rabbit (male Japanese White)
- condition-info: Oryctolagus cuniculus; final concentration 10^-5 M; histamine 10^-5 M stimulation; read-out: CAP: acid secretion inhibitory rate
value-kind: inhibition at 10 µM
Respond with the figure and its unit, in that order.

Before answering, review these 4 worked examples.
[[record]]
molecule = "CCN(CC)CCNC(=O)c1ccc(OCC=C(C)C)cc1 [Example 3]"
tested_target = "isolated gastric fundic gland"
value_kind = "inhibition at 10 µM"
measured = "70.8%"

[[record]]
molecule = "CCN(CC)CCNC(=O)c1ccc(OC)cc1OC/C=C(\\C)CCC=C(C)C [Example 32]"
tested_target = "isolated gastric fundic gland"
value_kind = "inhibition at 10 µM"
measured = "100%"

[[record]]
molecule = "CCN(CC)CCNC(=O)c1cc(OC)ccc1OC/C=C(\\C)CCC=C(C)C [Example 33]"
tested_target = "isolated gastric fundic gland"
value_kind = "inhibition at 10 µM"
measured = "100%"

[[record]]
molecule = "CCC(C)N(CCNC(=O)c1ccc(OC/C=C(\\C)CCC=C(C)C)cc1)C(C)CC (centres unmarked) [Example 8]"
tested_target = "isolated gastric fundic gland"
value_kind = "inhibition at 10 µM"
measured = "99.9%"


Query block: Give recorded inhibition at 10 µM. CC(C)c1ccc(C(=O)NCCN(C(C)C)C(C)C)cc1 [Example 64]
Result block: 72.7%

----------
Listed here: items and their measured inhibition at 10 µM.
- System: isolated gastric fundic gland
- assay-comment: CAP: Acid Secretion Inhibition Test In Vitro ([14C]-aminopyrine uptake)
- Format: cell-based, rabbit (male Japanese White)
- condition-info: Oryctolagus cuniculus; final concentration 10^-5 M; histamine 10^-5 M stimulation; read-out: CAP: acid secretion inhibitory rate
- Experimental: CAP: Acid Secretion Inhibition Test In Vitro The acid secretion inhibitory activity in a cell level is studied. It can also be used for studying the mechanism of the effect. First, an isolated gastric fundic gland sample was prepared. […] Then, [^14 C]-aminopyrine uptake test was performed. […] The gland pellet was completely dried as the tube with its lid being opened was kept for one night in a drying oven at 80° C. and then the lid was closed and the weight was determined at room temperature. […]
Note: unit % is implicit; provide only the numeric part.

Record excerpt, results attached:
[[record]]
cpd_smiles = "CC(C)=CCC/C(C)=C/COc1ccc(OC/C=C(\\C)CCC=C(C)C)c(C(=O)NCCN(C(C)C)C(C)C)c1"
measured = 100

[[record]]
cpd_smiles = "CCN(CC)CCNC(=O)c1cc(F)ccc1OC/C=C(\\C)CCC=C(C)C"
measured = 105

[[record]]
cpd_smiles = "CCN(CC)CCNC(=O)c1cc(OC)c(OC/C=C(/C)CCC=C(C)C)c(OC)c1"
measured = 99.8

[[record]]
cpd_smiles = "CC(C)=CCC/C(C)=C/CNc1ccc(C(=O)NCCN(C(C)C)C(C)C)cc1"
measured = 100

[[record]]
cpd_smiles = "CCN(CC)CCNC(=O)c1ccc(OC/C=C(\\C)CCC=C(C)C)cc1OC/C=C(\\C)CCC=C(C)C"
measured = 96.5


Query block: Please give the documented inhibition at 10 µM of CC(C)=CCC/C(C)=C/COc1ccccc1C(=O)NCCN(C)C
Result block: 96.6

Query block: Supply recorded inhibition at 10 µM for CCN(CC)CCNC(=O)c1ccccc1OC/C=C(\C)CCC=C(C)C here.
Result block: 99.9

----------
- System: isolated gastric fundic gland
- assay-comment: CAP: Acid Secretion Inhibition Test In Vitro ([14C]-aminopyrine uptake)
- Type: cell-based, rabbit (male Japanese White)
- condition-info: Oryctolagus cuniculus; final concentration 10^-5 M; histamine 10^-5 M stimulation; read-out: CAP: acid secretion inhibitory rate
Measured inhibition at 10 µM, listed per entry.
A number alone suffices; assume %.

[[record]]
cpd_smiles = "CC(C)Oc1ccc(C(=O)NCCN(C(C)C)C(C)C)cc1"
tested_target = "isolated gastric fundic gland"
measured = 47.5

[[record]]
cpd_smiles = "COc1cc(C(=O)NCCN(C)C)cc(OC/C=C(\\C)CCC=C(C)C)c1OC"
tested_target = "isolated gastric fundic gland"
measured = 98.6

[[record]]
cpd_smiles = "CC(C)Cc1cc(C(=O)NCCN(C(C)C)C(C)C)ccc1OCc1ccc(F)cc1"
tested_target = "isolated gastric fundic gland"
measured = 100

[[record]]
cpd_smiles = "CC(C)N(CCNC(=O)c1ccc(N(C)C)cc1)C(C)C"
tested_target = "isolated gastric fundic gland"
measured = 101


Could you now consider this next compound?
Query block: Enter measured inhibition at 10 µM, system isolated gastric fundic gland, for the compound shown: CCN(CC)CCNC(=O)c1ccc(CC(C)C)c(O)c1
Result block: 53.4

----------
- Test system: stress ulcer formation in rats
- assay-comment: WIS: Restraint and Water Immersion Stress-Induced Ulcer Inhibition Test
- Assay type: in vivo, rat (male Crj:SD or Slc:SD)
- condition-info: 100 mg/kg oral, 10 minutes before 7 h restraint and water immersion (21° C.)
In this scheme, each record receives a class according to its WIS: ulcer formation inhibitory rate; the ranges are low bin: < 60%; mid bin: ≥ 60% and < 80%; high bin: ≥ 80%

Example entries begin here.
[[record]]
compound = "CC(C)=CCC/C(C)=C/COc1ccc(OC/C=C(\\C)CCC=C(C)C)c(C(=O)NCCN(C(C)C)C(C)C)c1"
tested_target = "stress ulcer formation in rats"
discrete_label = "mid bin"

[[record]]
compound = "CCN(CC)CCNC(=O)c1cc(OC)c(OC)c(OC/C=C(\\C)CCC=C(C)C)c1"
tested_target = "stress ulcer formation in rats"
discrete_label = "high bin"

[[record]]
compound = "CC(C)N(CCNC(=O)c1cc(C(C)(C)C)cc(C(C)(C)C)c1)C(C)C"
tested_target = "stress ulcer formation in rats"
discrete_label = "high bin"

[[record]]
compound = "CCN(CC)CCNC(=O)c1cccnc1OC/C=C(\\C)CCC=C(C)C"
tested_target = "stress ulcer formation in rats"
discrete_label = "low bin"

[[record]]
compound = "CCCCCc1ccc(C(=O)NCCN(C(C)C)C(C)C)cc1"
tested_target = "stress ulcer formation in rats"
discrete_label = "mid bin"

[[record]]
compound = "CCC(C)N(CCNC(=O)c1ccc(OC/C=C(\\C)CCC=C(C)C)cc1)C(C)CC (stereo not drawn)"
tested_target = "stress ulcer formation in rats"
discrete_label = "low bin"

[[record]]
compound = "CC(C)N(CCNC(=O)c1ccc(C(C)(C)C)cc1)C(C)C"
tested_target = "stress ulcer formation in rats"
discrete_label = "high bin"

[[record]]
compound = "CC(C)Cc1cc(C(=O)NCCN(C(C)C)C(C)C)ccc1OCc1ccc(F)cc1"
tested_target = "stress ulcer formation in rats"
discrete_label = "low bin"

[[record]]
compound = "CC(C)N(CCNC(=O)c1ccc2c(c1)OCO2)C(C)C"
tested_target = "stress ulcer formation in rats"
discrete_label = "high bin"


Query block: Assign a bin to CC(C)=CCOc1ncccc1C(=O)NCCN(C)C
Result block: low bin
